Each recorded value in this set is attributed to patent US12240841B2.

Target: FXR receptor (Homo sapiens, UniProt Q96RI1)
Construct: expressed in transfected cells; host or cells: 293T cells
Sequence (Q96RI1 1-486): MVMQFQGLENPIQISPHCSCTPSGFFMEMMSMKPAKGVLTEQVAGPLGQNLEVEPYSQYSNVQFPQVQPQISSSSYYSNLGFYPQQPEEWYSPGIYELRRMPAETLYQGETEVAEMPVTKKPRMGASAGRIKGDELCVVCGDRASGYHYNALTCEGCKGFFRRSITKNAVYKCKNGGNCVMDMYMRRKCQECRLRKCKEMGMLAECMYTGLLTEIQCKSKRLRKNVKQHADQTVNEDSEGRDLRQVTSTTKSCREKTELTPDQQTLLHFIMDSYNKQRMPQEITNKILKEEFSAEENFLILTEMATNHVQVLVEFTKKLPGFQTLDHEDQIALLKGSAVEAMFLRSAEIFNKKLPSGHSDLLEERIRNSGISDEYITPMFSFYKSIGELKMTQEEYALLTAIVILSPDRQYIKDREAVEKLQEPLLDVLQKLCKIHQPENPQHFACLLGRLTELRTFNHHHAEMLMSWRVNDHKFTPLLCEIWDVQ
Assay: FXR activity at the cell level (FXRE luciferase reporter in 293T cells)
Assay type: cell-based
Details: 10 μM, 293T cells, luciferase reporter, relative to OCA
ASSAY METRIC: Activity relative to OCA (%) 10 μM
Note: unit % is implicit; provide only the numeric part.

Some solved entries appear below for comparison.
# COMPOUND, UNIT, Activity relative to OCA (%) 10 μM
data = [
    ("O=c1[nH]c(-c2ccc(N3CCC(OCc4c(-c5c(Cl)cccc5Cl)noc4C4CC4)CC3)c(F)c2)no1", "%", 150),
    ("Cc1ccccc1-c1noc(C2CC2)c1COC1CC2CCC(C1)N2c1ccc(-c2noc(=O)[nH]2)cn1 (stereo not shown)", "%", 105),
    ("O=c1[nH]c(-c2ccc(N3CCC(OCc4c(-c5c(Cl)cccc5Cl)noc4C4CC4)CC3)cn2)no1", "%", 74),
    ("O=c1[nH]c(-c2cccc(N3CCC(OCc4c(-c5c(Cl)cccc5Cl)noc4C4CC4)C3)c2)no1 (stereo not shown)", "%", 83),
    ("O=c1[nH]c(-c2ccc(N3C4CCC3CC(OCc3c(-c5ccccc5OC(F)F)noc3C3CC3)C4)nc2)no1 (stereo not shown)", "%", 108),
    ("O=c1[nH]c(-c2ccc(N3CCC(OCc4c(-c5ccccc5OC(F)(F)F)noc4C4CC4)CC3)cc2)no1", "%", 90),
]

We now examine a further compound.
Answer with the recorded Activity relative to OCA (%) 10 μM for the compound listed here: O=c1[nH]c(-c2c(F)cc(N3CCC(OCc4c(-c5ccccc5OC(F)(F)F)noc4C4CC4)CC3)cc2F)no1
120

* * *

Biological target: recombinant GST-FXR fusion protein (Homo sapiens)
Experiment: FXR activity at the molecular level (AlphaScreen)
ASSAY METRIC: EC50 (nM)
Note: unit nM is implicit; provide only the numeric part.

Some solved entries appear below for comparison.
# MOLECULE, EC50 / nM
measured = [
    ("O=c1[nH]c(-c2ccc(N3CCC(OCc4c(-c5ccccc5C(F)(F)F)noc4C4CC4)CC3)nc2)no1", 96.7),
    ("O=c1[nH]c(-c2ccc(N3CCC(OCc4c(-c5ccccc5OC(F)(F)F)noc4C4CC4)CC3)nc2)no1", 70),
    ("Cc1ccccc1-c1noc(C2CC2)c1COC1CC2CCC(C1)N2c1ccc(-c2noc(=O)[nH]2)cn1 (centres unmarked)", 94.4),
    ("Cc1ccccc1-c1noc(C2CC2)c1COC1CC2CCC(C1)N2c1ccc(-c2noc(=O)[nH]2)c(F)c1 (centres unmarked)", 80.4),
]

Answer with the recorded EC50 for the molecule listed here: O=c1[nH]c(-c2ccc(N3CCC(OCc4c(-c5c(Cl)cccc5Cl)noc4C4CC4)CC3)cc2)no1
72
